- system: T1, Human CD3 delta (CD3 delta) protein (His Tag) (human, UniProt P04234 22-105)
- T1 construct: extracellular domain; Bought protein; not shown: His tag
- T1 sequence (P04234 22-105, stated change not applied): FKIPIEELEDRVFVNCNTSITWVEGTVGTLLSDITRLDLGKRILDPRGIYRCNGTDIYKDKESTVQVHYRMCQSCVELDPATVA
- test_details: ELISA, antigen coated on plate, HRP-labelled 2nd antibody; further: test concentration or dose not given here
Documented ELISA (A450) across a set of binders
Express your answer as a number followed by its unit.

INSERT INTO measurements (binder, result) VALUES
  ('WBP3311_2.400.5 (antibody, V domains shown, Mouse monoclonal antibody from hybridoma; also called W3311-2.400.5) VH: QVQLQQSGPELVNPGASVKISCKASGYSFTNYYLHWVKQRPGQGLEWIGWIFPESDNTKYNEKLKGKATLTADTSSDTAYMHLSSLTFEDSAVYFCARDSVGNYFFDFWGQGTTLTVSS VL: DIVMSQSPSSLAVSAGEKVTMRCKSSQSLVNNRTRKNYLAWYQQKPGQPPKLLIYWASTRESGVPDRFTGSGSGTDFTLTISSVQAEDLAVYYCAQSFILRTFGGGTKLEIK', '0.05 A450'),
  ('WBP331_2.488.33 (antibody, V domains shown, Mouse monoclonal antibody from hybridoma; also called WBP3311_2.488.33; W3311-2.488.33) VH: QVQLQQSGPELVKPGTSVKISCKASGFSFTNYYIHWVKQRPGQGPEWIGWIFPGTVNTKYNEKFKGKATLTADTSSNTAFMQLSSLTSADSAVYFCARDSVGIYYFDFWGLGTTLTVSS VL: DIVMSQSPSSLAVSAGEKVTVSCKSSQSLLNNRTRKNYLAWYQQKPGQSPKLLIYWASTRESGVPDRFTGSGSGTDFTLTISSVQAEDLAVYYCTQSFILRTFGGGTKLEIK', '0.05 A450');

Q) // fetch ELISA (A450) given entry WBP3311_2.166.48 (antibody, IgG2a, V domains shown, Mouse monoclonal antibody from hybridoma; also called W3311-2.166.48; W3311_2.166.48) VH: QVQLQQSGPELVKPGASVKIACKASGYSFTTYYIHWVKQRPGQGLEWIGWIFPGNDNIKYSEKFKGKATLTADTSSSTAYMQLSSLTSEDSAVYFCAIDSVSIYYFDYWGQGTTLTVSS VL: DIVMSQSPSSLAVSAGEKVTMSCKSSQSLLNSRTRKNYLAWYQQKPGQSPKLLIYWASTRKSGVPDRFTGSGSGTDFTLTINSVQAEDLAVYYCTQSFILRTFGGGTKLEIK
A) 0.05 A450
